- target-under-test: KRAS protein containing G12D mutation (Homo sapiens (Human), UniProt P01116, G12D)
- Sequence (P01116 other isoform, or with tags, fused parts or gaps G12D (already in the parent)): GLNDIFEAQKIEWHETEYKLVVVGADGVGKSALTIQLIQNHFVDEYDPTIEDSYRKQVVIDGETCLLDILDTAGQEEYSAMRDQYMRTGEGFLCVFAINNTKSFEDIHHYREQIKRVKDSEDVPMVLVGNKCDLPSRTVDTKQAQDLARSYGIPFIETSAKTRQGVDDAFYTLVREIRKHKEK
- experiment: SOS-catalyzed nucleotide exchange assay (GNE), TR-FRET
- Type: biochemical
- measurement-conditions: biotinylated KRAS G12D, SOS and GTP, 60-minute incubation
measured-property: log10 IC50 (log10 of the value in nM)
Use the decimal logarithm of IC50 (nM).

Prompt: Recorded log10 IC50 for CN(C)CC1(COc2nc(N3CC4CC(O)C(C3)N4)c3cc(Cl)c(-c4cc(O)cc5ccccc45)c(F)c3n2)CC1 (single isomer, unassigned) [Example 22a] , please?
Completion: 3.71

====

- target-under-test: KRAS protein containing G12D mutation (Homo sapiens (Human), UniProt P01116, G12D)
- experiment: SOS-catalyzed nucleotide exchange assay (GNE), TR-FRET
- Format: biochemical
- measurement-conditions: biotinylated KRAS G12D, SOS and GTP, 60-minute incubation
Counter-ions that a name gives are not always drawn.
measured-property: IC50 (nM)
Write down the numeric answer in nM and omit the unit.

Please review the following examples before continuing.
{"molecule": "N#Cc1c(N)sc2c(F)ccc(-c3c(F)cc4c(N5C[C@H]6CC[C@@H](C5)N6)nc(OC[C@@]56CCCN5C[C@H](F)C6)nc4c3F)c12 (single isomer, unassigned) [Ex. 144b]", "measurement": 20}
{"molecule": "NC1(COc2nc(N3CC4CCC(C3)N4)c3cc(Cl)c(-c4cc(O)cc5ccccc45)c(F)c3n2)CCOC1 (stereo not drawn) [Example 111, TFA]", "measurement": 2470}

Moving on to the next molecule.
Prompt: What IC50 appears in the records for this molecule with KRAS protein containing G12D mutation (Homo sapiens (Human), UniProt P01116, G12D)? `Cc1cc2[nH]ncc2c(-c2c(F)cc3c(N4CC5CCC(C4)N5)nc(OCC4(CN5CCOCC5)CC4)nc3c2F)c1C(F)(F)F`
Completion: 30.8

Values from patent US20240239788A1
